Recorded values, source ChEMBL document CHEMBL3763117.

Test details: Cytotoxicity against mouse RAW264.7 cells assessed as inhibition of cell viability at 50 uM after 72 hrs by MTT assay
Assay type: cell-based
Protocol conditions: read-out: INH
Property name: cytotoxicity at 72 h, 50 µM (%)
One number for each entry, in %.

COc1cc(/C=N/NC(=O)c2c(C)nc3sccn23)cc(OC)c1OC: 1.17
Cc1nc2sccn2c1C(=O)NNC(=O)c1ccccc1: 10.3
Cc1nc2sc3ccccc3n2c1C(=O)NNC(=O)c1cccc2ccccc12: 32

Hi, could you look up cytotoxicity at 72 h, 50 µM for each item in my list?
1. Cc1nc2sccn2c1C(=O)N/N=C/c1ccc(Br)cc1
2. Cc1nc2sc3ccccc3n2c1C(=O)NC1CCCCC1
3. Cc1nc2sc3ccccc3n2c1C(=O)NNC(=O)C1CCCCC1

[out]
1: 22.2; 2: 13.4; 3: 45.4

---

Test details: Cytotoxicity against mouse RAW264.7 cells assessed as inhibition of cell viability at 50 uM after 72 hrs by MTT assay
Assay type: cell-based
Protocol conditions: read-out: INH
Field: cytotoxicity at 72 h, 50 µM. Provide a value for each of the compounds that follow.
Answers are plain numbers, in %.

Cc1nc2sccn2c1C(=O)Nc1ccc(Br)cc1: 32.3
Cc1nc2sccn2c1C(=O)Nc1ccccc1: 14.1
Cc1ccc(C(=O)NNC(=O)c2c(C)nc3sccn23)cc1: 39.2
Cc1nc2sc3ccccc3n2c1C(=O)NNC(=O)c1ccccc1: 29.7
Cc1nc2sc3ccccc3n2c1C(=O)N/N=C/c1ccc(C(F)(F)F)cc1: 16.1

Now examine the next entry.
[in] Give the measured cytotoxicity at 72 h, 50 µM of Cc1nc2sc3ccccc3n2c1C(=O)Nc1ccc(Br)cc1 .
[out] 20.9

---

Field: cytotoxicity at 72 h, 50 µM. Provide a value for each of the compounds that follow.
Test details: Cytotoxicity against mouse RAW264.7 cells assessed as inhibition of cell viability at 50 uM after 72 hrs by MTT assay
Assay type: cell-based
Protocol conditions: read-out: INH
Answers are plain numbers, in %.

Cc1nc2sccn2c1C(=O)NCc1ccccc1: 12.7
Cc1nc2sc3ccccc3n2c1C(=O)NCc1ccccc1: 6.62
Cc1nc2sccn2c1C(=O)N/N=C/c1ccc(C(F)(F)F)cc1: 12.8

Hi, could you look up cytotoxicity at 72 h, 50 µM for each item in my list?
1. CCOc1ccc(NC(=O)c2c(C)nc3sc4ccccc4n23)cc1
2. Cc1ccc(C(=O)NNC(=O)c2c(C)nc3sc4ccccc4n23)cc1
3. Cc1nc2sc3ccccc3n2c1C(=O)NNC(=O)c1ccc(Oc2ccccc2)cc1
4. Cc1nc2sccn2c1C(=O)NNC(=O)c1cccc2ccccc12
5. Cc1nc2sc3ccccc3n2c1C(=O)N/N=C/c1ccc(N(C)C)cc1
6. COc1cc(/C=N/NC(=O)c2c(C)nc3sc4ccccc4n23)cc(OC)c1OC
7. Cc1nc2sccn2c1C(=O)N/N=C/c1ccccc1
8. Cc1nc2sc3ccccc3n2c1C(=O)Nc1ccccc1

[out]
[52.7, 53, 10.4, 27.5, 12.1, 16.2, 23.1, 33.2]

---

Test details: Cytotoxicity against mouse RAW264.7 cells assessed as inhibition of cell viability at 50 uM after 72 hrs by MTT assay
Format: cell-based
Protocol conditions: read-out: INH
Field: cytotoxicity at 72 h, 50 µM. Provide a value for each of the compounds that follow.
Give bare numbers, in %.

These solved cases illustrate the format of a correct answer.
Cc1nc2sccn2c1C(=O)NNC(=O)c1ccc(Oc2ccccc2)cc1: 2.98
Cc1nc2sccn2c1C(=O)NC1CCCCC1: 32.1
Cc1nc2sc3ccccc3n2c1C(=O)N/N=C/c1ccccc1: 34.6
COc1ccc(NC(=O)c2c(C)nc3sccn23)cc1: 58.7
Cc1nc2sccn2c1C(=O)N/N=C/c1ccc(N(C)C)cc1: 6.75

Hi, could you look up cytotoxicity at 72 h, 50 µM for each item in my list?
1. Cc1nc2sc3ccccc3n2c1C(=O)N/N=C/c1ccc(Br)cc1
2. Cc1nc2sccn2c1C(=O)NNC(=O)C1CCCCC1

[out]
1. 10.1
2. 31.2

---

Target desc: Pantothenate synthetase (Mycobacterium tuberculosis)
Property name: IC50 (nM)
One number for each entry, in nM.

These solved cases illustrate the format of a correct answer.
Cc1nc2sccn2c1C(=O)NNC(=O)c1cccc2ccccc12: 640
Cc1nc2sc3ccccc3n2c1C(=O)Nc1ccccc1: 1030
Cc1nc2sccn2c1C(=O)N/N=C/c1ccc(Br)cc1: 1200
Cc1nc2sc3ccccc3n2c1C(=O)NNC(=O)c1cccc2ccccc12: 1390
Cc1nc2sccn2c1C(=O)NC1CCCCC1: 2000

Hi, could you look up IC50 for each item in my list?
1. Cc1nc2sc3ccccc3n2c1C(=O)NNC(=O)c1ccccc1
2. COc1cc(/C=N/NC(=O)c2c(C)nc3sccn23)cc(OC)c1OC
3. Cc1nc2sccn2c1C(=O)N/N=C/c1ccccc1
4. Cc1nc2sc3ccccc3n2c1C(=O)N/N=C/c1ccc(N(C)C)cc1

[out]
1: 1100; 2: 5610; 3: 580; 4: 1460

Hi, could you look up IC50 for each item in my list?
1. Cc1nc2sccn2c1C(=O)N/N=C/c1ccc(N(C)C)cc1
2. Cc1ccc(C(=O)NNC(=O)c2c(C)nc3sccn23)cc1
3. Cc1nc2sccn2c1C(=O)NNC(=O)C1CCCCC1
4. Cc1nc2sc3ccccc3n2c1C(=O)N/N=C/c1ccccc1
5. Cc1nc2sccn2c1C(=O)NCc1ccccc1
6. CCOc1ccc(NC(=O)c2c(C)nc3sc4ccccc4n23)cc1

[out]
1. 2500
2. 4990
3. 5380
4. 2150
5. 1060
6. 2100

---

Target desc: Pantothenate synthetase (Mycobacterium tuberculosis)
Test details: Inhibition of Mycobacterium tuberculosis pantothenate synthetase using pantoic acid as substrate and beta-alanine as reactant assessed as NAD+ formation by spectrophotmetry in presence of NADH
Property name: IC50 (µM)
Answers are plain numbers, in µM.

Hi, could you look up IC50 for each item in my list?
1. Cc1ccc(C(=O)NNC(=O)c2c(C)nc3sc4ccccc4n23)cc1
2. Cc1nc2sc3ccccc3n2c1C(=O)Nc1ccc(Br)cc1
3. Cc1nc2sc3ccccc3n2c1C(=O)N/N=C/c1ccc(C(F)(F)F)cc1
4. Cc1nc2sccn2c1C(=O)Nc1ccc(Br)cc1
5. COc1cc(/C=N/NC(=O)c2c(C)nc3sc4ccccc4n23)cc(OC)c1OC

[out]
[5.83, 0.52, 5.31, 0.69, 2.07]

[in] Reported IC50 for Pantothenate synthetase (Mycobacterium tuberculosis), given Cc1nc2sc3ccccc3n2c1C(=O)NC1CCCCC1 ?
[out] 1.02

---

System: Pantothenate synthetase (Mycobacterium tuberculosis, UniProt P9WIL5) | Read-out: pIC50
Sequence (P9WIL5 whole entry): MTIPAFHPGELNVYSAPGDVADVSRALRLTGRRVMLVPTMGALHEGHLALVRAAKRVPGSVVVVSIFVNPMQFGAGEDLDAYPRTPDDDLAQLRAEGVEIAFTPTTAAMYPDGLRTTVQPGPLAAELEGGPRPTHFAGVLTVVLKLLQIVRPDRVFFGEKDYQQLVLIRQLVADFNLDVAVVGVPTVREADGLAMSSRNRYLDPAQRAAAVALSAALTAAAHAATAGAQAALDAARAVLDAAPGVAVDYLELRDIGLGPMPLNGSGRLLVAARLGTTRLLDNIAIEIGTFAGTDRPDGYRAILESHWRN
Numbers only, as −log10 of the molar value.

Cc1nc2sccn2c1C(=O)NNC(=O)c1ccc(Oc2ccccc2)cc1: 5.91

Hi, could you look up pIC50 for each item in my list?
1. Cc1nc2sccn2c1C(=O)N/N=C/c1ccc(C(F)(F)F)cc1
2. COc1ccc(NC(=O)c2c(C)nc3sccn23)cc1
3. Cc1nc2sc3ccccc3n2c1C(=O)NCc1ccccc1
4. Cc1nc2sc3ccccc3n2c1C(=O)NNC(=O)C1CCCCC1
5. Cc1nc2sccn2c1C(=O)Nc1ccccc1
6. Cc1nc2sccn2c1C(=O)NNC(=O)c1ccccc1

[out]
6.17
5.23
6.08
5.54
6.13
5.27

Hi, could you look up pIC50 for each item in my list?
1. Cc1nc2sc3ccccc3n2c1C(=O)NNC(=O)c1ccc(Oc2ccccc2)cc1
2. Cc1nc2sc3ccccc3n2c1C(=O)N/N=C/c1ccc(Br)cc1

[out]
[6.28, 5.99]
